Kindly state SPOT peptide array binding signal intensity for each of the entries shown.
molecular target: SpPex13; experiment: SPOT peptide array binding signal intensity (averaged, normalized) (arbitrary units (background-subtracted, floor 0; scale differs between SH3 domains)); higher = stronger binding of the SH3 domain to the peptide
# print the numeric value only

Problem: May I ask what SPOT peptide array binding signal intensity has been recorded for "TPEIPPPLPPKIMVH" ?
Result: 9

Problem: May I ask what SPOT peptide array binding signal intensity has been recorded for "RRGPAPPPPPRASRP" ?
Result: 2

Problem: May I ask what SPOT peptide array binding signal intensity has been recorded for "QPQRTAPKPPISAPR" ?
Result: 1

Problem: May I ask what SPOT peptide array binding signal intensity has been recorded for "LEFRAILFIPKRAPF" ?
Result: 127

Problem: May I ask what SPOT peptide array binding signal intensity has been recorded for "LLRRTIPKRPFYHVL" ?
Result: 1.5

Problem: May I ask what SPOT peptide array binding signal intensity has been recorded for "GTIARPLFLVVLFFI" ?
Result: 1

Problem: May I ask what SPOT peptide array binding signal intensity has been recorded for "KNRKNLPTIPIRLSG" ?
Result: 9.5

Problem: May I ask what SPOT peptide array binding signal intensity has been recorded for "QFDLKMPSKPIHNLK" ?
Result: 1
